System: BT-549 breast
Assay: NCI-60 one-dose screen, 48 h
Conditions: 10 µM unless noted
The panel holds about 83,000 compounds, 20% with a hit somewhere; the sample as a whole holds those more often. Activity calls are given as the source filed them. Rule for the calls: active = growth percent below 10; inactive = the rest.
Classes used: active, inactive

>  <compound>
COc1ccc(/C=C/C=C\C(=O)c2ccc(-n3ccnc3)cc2)cc1

>  <assigned.category>
inactive

$$$$
>  <compound>
FC(F)(F)c1ccc2c(c1)Sc1ccccc1N2

>  <assigned.category>
inactive

$$$$
>  <compound>
CCNC(=O)N1CCc2c(Cl)c3c(c(OC)c2[C@@H]1[C@H]1OCc2c1ccc(OC)c2OC)OCCO3

>  <assigned.category>
inactive

$$$$
>  <compound>
O=S(=O)(c1ccc(N/N=C\c2ccccc2Cl)cc1)c1ccc(N/N=C/c2ccccc2Cl)cc1

>  <assigned.category>
inactive

$$$$
>  <compound>
C[n+]1cccc(NC(=O)c2ccc3ccc4ccc(C(=O)Nc5ccc[n+](C)c5)nc4c3n2)c1

>  <assigned.category>
inactive

$$$$
>  <compound>
COc1cc2c(c(OC)c1OC)-c1ccc(NNC(N)=S)c(=O)cc1[C@@H](NC(C)=O)CC2

>  <assigned.category>
active

$$$$
>  <compound>
C=C(C)[C@@H]1CC[C@]2(C(=O)N3CCN(C)CC3)CC[C@]3(C)[C@H](CC[C@@H]4[C@@]5(C)C/C(=C/c6ccncc6)[C@H](O)C(C)(C)[C@@H]5CC[C@]43C)[C@@H]12

>  <assigned.category>
active

$$$$
>  <compound>
O=C(O)CSCc1nnc2n(Cc3ccccc3)c(=O)c3c4c(sc3n12)CCCC4

>  <assigned.category>
inactive

$$$$
>  <compound>
CC(C)[N+](C)(C)CC(O)COc1cccc2ccccc12 (centres undefined)

>  <assigned.category>
inactive

$$$$

---

System: OVCAR-5 ovarian
Assay: NCI-60 one-dose screen, 48 h (100 = growth as untreated, 0 = no growth, -100 = all killed)
Settings: 10 µM unless noted
This is part of a sample that, as a whole, favours compounds with a hit. Of some 83,000 tested, about 20% had one in any assay.
# maps each entry to its growth

>  <molecule>
C#C[C@]1(O)CC[C@H]2[C@@H]3CC=C4c5nc(Nc6ccc(OC)cc6OC)sc5CC[C@]4(C)[C@H]3CC[C@@]21C

>  <unit.info>
%

>  <growth>
51.7

$$$$
>  <molecule>
CCN(CC)c1ccc(/C=C/c2ccc3cc(C)ccc3[n+]2CC)cc1

>  <unit.info>
%

>  <growth>
26.8

$$$$
>  <molecule>
C#C[C@]1(O)CC[C@H]2[C@@H]3CC=C4c5nc(Nc6ccccc6[N+](=O)[O-])sc5CC[C@]4(C)[C@H]3CC[C@@]21C

>  <unit.info>
%

>  <growth>
70.4

$$$$
>  <molecule>
O=C(O)c1cc([N+](=O)[O-])ccc1Br

>  <unit.info>
%

>  <growth>
90.8

$$$$
>  <molecule>
CCN(CC)CCCC(C)Nc1c2ccc(C)cc2nc2ccc(OC)cc12 (centres undefined)

>  <unit.info>
%

>  <growth>
76.2

$$$$
>  <molecule>
[2H]C1([2H])CCN(C(=O)C2CC2)c2cc(NS(=O)(=O)c3ccc(-c4cccc(C(N)=O)c4)cc3)ccc21

>  <unit.info>
%

>  <growth>
60.6

$$$$
>  <molecule>
O=C(Nc1cccc(C2=NCCN2)c1)c1cccc(C(=O)Nc2cccc(C3=NCCN3)c2)c1

>  <unit.info>
%

>  <growth>
95.7

$$$$
>  <molecule>
CCOC(CNC(=O)c1cccc([N+](=O)[O-])c1)OCC

>  <unit.info>
%

>  <growth>
101

$$$$
>  <molecule>
COc1cc2c(=O)[nH]c3cc([N+](=O)[O-])ccc3c2cc1[N+](=O)[O-]

>  <unit.info>
%

>  <growth>
74.1

$$$$

---

# maps each entry to its growth
Test system: A549/ATCC NSCLC
Assay: NCI-60 one-dose screen, 48 h (100 = growth as untreated, 0 = no growth, -100 = all killed)
Details: 10 µM unless noted
This is part of a sample that, as a whole, favours compounds with a hit. Of some 83,000 tested, about 20% had one in any assay. Active and inactive are the calls of the source. Rule for the calls: active = growth percent below 10; inactive = the rest.
measured.quantity: growth

>  <query.smiles>
CN(C)c1ccc(-c2ccc(-c3ccc(C(=N)N)cc3)s2)cc1

>  <target.system>
A549/ATCC NSCLC

>  <measured.quantity>
growth

>  <test.value>
-72.7% (active)

$$$$
>  <query.smiles>
C#CCC(C(=O)OCC)C(=O)OCC

>  <target.system>
A549/ATCC NSCLC

>  <measured.quantity>
growth

>  <test.value>
100% (inactive)

$$$$
>  <query.smiles>
CC(=O)CC(=O)SC1=NCCS1

>  <target.system>
A549/ATCC NSCLC

>  <measured.quantity>
growth

>  <test.value>
87.6% (inactive)

$$$$
>  <query.smiles>
C[C@H]1[C@H](C)CC[C@]2(C(=O)O)CC[C@]3(C)C(=CC[C@@H]4[C@@]5(C)C/C(=C/c6cccnc6)[C@H](O)C(C)(C)[C@@H]5CC[C@]43C)[C@H]12

>  <target.system>
A549/ATCC NSCLC

>  <measured.quantity>
growth

>  <test.value>
8.85% [100 µM] (active)

$$$$
>  <query.smiles>
CC1(C)CC[C@]2(C(N)=O)CC[C@]3(C)C(=CC[C@@H]4[C@@]5(C)C/C(=C/c6ccncc6)C(=O)C(C)(C)[C@@H]5CC[C@]43C)[C@@H]2C1

>  <target.system>
A549/ATCC NSCLC

>  <measured.quantity>
growth

>  <test.value>
-54.2% [100 µM] (active)

$$$$
>  <query.smiles>
COc1ccc(-c2cc(-c3ccccc3)nc(SCCCCCC(=O)NO)n2)cc1

>  <target.system>
A549/ATCC NSCLC

>  <measured.quantity>
growth

>  <test.value>
59.3% (inactive)

$$$$
>  <query.smiles>
CC(C)CSc1ncnc2nc[nH]c12

>  <target.system>
A549/ATCC NSCLC

>  <measured.quantity>
growth

>  <test.value>
103% (inactive)

$$$$
>  <query.smiles>
N#C/C(C(=O)c1ccccc1)=C1/C(=O)Nc2ccccc21

>  <target.system>
A549/ATCC NSCLC

>  <measured.quantity>
growth

>  <test.value>
106% (inactive)

$$$$
>  <query.smiles>
OC(c1ccc(Cl)cc1)(c1ccc(Cl)cc1)C(O)(c1ccc(Cl)cc1)c1ccc(Cl)cc1

>  <target.system>
A549/ATCC NSCLC

>  <measured.quantity>
growth

>  <test.value>
44.9% (inactive)

$$$$

---

# maps each entry to its growth
System: NCI-H322M lung
Experiment: NCI-60 one-dose screen, 48 h (100 = growth as untreated, 0 = no growth, -100 = all killed)
Settings: 10 µM unless noted
Compounds without any hit were thinned out: in the full panel of roughly 83,000, 20% have a hit.

>  <compound>
CCOC(=O)C(=Cc1ccccc1[N+](=O)[O-])C(=O)OCC

>  <growth (%)>
89.2

$$$$
>  <compound>
COc1ccccc1S(=O)Nc1ccccc1 (stereo unspecified)

>  <growth (%)>
94.9

$$$$
>  <compound>
CCOc1ccccc1/C=N\Nc1ccc(S(=O)(=O)c2ccc(N/N=C/c3ccccc3OCC)cc2)cc1

>  <growth (%)>
92.1

$$$$
>  <compound>
Cc1ccc(S(=O)(=O)Nc2ccccc2)cc1N

>  <growth (%)>
97

$$$$
>  <compound>
FC(F)(F)c1ccc2c(c1)Sc1ccccc1N2

>  <growth (%)>
103

$$$$
>  <compound>
CCCCCCSc1ncnc2nc[nH]c12

>  <growth (%)>
99.9

$$$$

---

# maps each entry to its growth
Test system: K-562 leukemia
Test: NCI-60 one-dose screen, 48 h (100 = growth as untreated, 0 = no growth, -100 = all killed)
Settings: 10 µM unless noted
Protocol: Cells are grown in 96 well plates and exposed to the test compound for 48 hours. Compounds are tested at a single concentration, which is 10^-5 M for most compounds. The reported endpoint is percent growth (GI% or GIPRCNT), where numbers from 0 - 100% represent growth inhibition, and numbers from -100% - 0 represent cell death. For example, a value of 40 represents 60% growth inhibition. A value of 0 means no net growth occurred over the course of the experiment. […]
Compounds without any hit were thinned out: in the full panel of roughly 83,000, 20% have a hit. Calls of active or inactive are those of the source. Rule for the calls: active = growth percent below 10; inactive = the rest.

>  <compound>
Clc1ccc(N2CCN(CCCN3CCN(c4cccc(Cl)c4)CC3)CC2)cc1

>  <growth>
38.8% (inactive)

$$$$
>  <compound>
CN(Cc1cccc(C(F)(F)F)c1)C(=O)[C@@H](CC(=O)N1CCC(N2CCCCC2)CC1)N1C(=O)[C@@H](N2C(=O)OC[C@@H]2c2ccccc2)[C@H]1/C=C/c1ccccc1

>  <growth>
65.7% (inactive)

$$$$
>  <compound>
CC1(C)C(=O)/C(=C\c2cccnc2)C[C@]2(C)[C@H]3CC[C@@H]4[C@H]5[C@H](C(=O)/C=C/c6cccnc6)CC[C@]5(C(=O)O)CC[C@@]4(C)[C@]3(C)CC[C@@H]12

>  <growth>
6.57% [100 µM] (active)

$$$$
>  <compound>
CCC(Br)(CC)C(=O)c1ccc(OCC(=O)O)c(Cl)c1Cl

>  <growth>
114% (inactive)

$$$$
>  <compound>
CC1Cc2c(Cl)ncnc2N(C)c2ccc(O)cc21 (configuration not stated)

>  <growth>
89.6% (inactive)

$$$$
>  <compound>
Cc1cccc(C[C@H](NC(=O)Nc2ccc(Cl)cc2F)C(=O)N[C@@H]2C(=O)N3C[C@H](O)C[C@H]3C(=O)N3CCN(C)C[C@H]3C(=O)N[C@@H](C)C(=O)N3C[C@H](C)C[C@H]3C(=O)O[C@H]2C)c1

>  <growth>
24.4% (inactive)

$$$$
>  <compound>
N#Cc1c(Cl)nc(SCC2CO2)nc1-c1ccccc1 (configuration not stated)

>  <growth>
128% (inactive)

$$$$
>  <compound>
Clc1ccc2nc(-c3ccc(-c4ccc(/C=N/NC5=NCCN5)cc4)s3)cn2c1

>  <growth>
4.14% (active)

$$$$
>  <compound>
CC(C)C1=NOC(=O)C1=Cc1cn(-c2ccccc2)nc1-c1cccc([N+](=O)[O-])c1

>  <growth>
33.4% (inactive)

$$$$
>  <compound>
Cc1nn(-c2ccccc2)c(N2CCOCC2)c1-c1nc2ccc([N+](=O)[O-])cc2[nH]1

>  <growth>
88.4% (inactive)

$$$$
>  <compound>
CCN(CC)CCCNCc1cc(-c2ccccc2)nc2ccccc12

>  <growth>
24.3% (inactive)

$$$$
>  <compound>
CN(C)CCCNc1nc(-c2cccc(C(Cl)(Cl)Cl)c2)nc(C(Cl)(Cl)Cl)n1

>  <growth>
88.2% (inactive)

$$$$
>  <compound>
C=C(C)[C@@H]1CC[C@]2(C(=O)OC)CC[C@]3(C)[C@H](CC[C@@H]4[C@@](C)(CCc5nn[nH]n5)[C@H](C(=C)C)CC[C@]43C)[C@@H]12

>  <growth>
14.5% [100 µM] (inactive)

$$$$
>  <compound>
Cn1c(=O)c(C#N)c(-c2ccco2)n2c(S(=O)(=O)Cc3ccccc3)nnc12

>  <growth>
100% (inactive)

$$$$
>  <compound>
O=C(O)c1cn(C2CC2)c2cc(N3CCN(Cc4cc(Cl)ccc4O)CC3)c(F)cc2c1=O

>  <growth>
46.5% (inactive)

$$$$
>  <compound>
Cn1cc(-c2noc(-c3cn(C)c4ncc(F)cc34)n2)c2cc(Cl)ccc21

>  <growth>
77.2% (inactive)

$$$$
>  <compound>
Cc1cc(C)c(-c2cc(O)c(-c3c(C)cc(C)cc3C)cc2O)c(C)c1

>  <growth>
8.34% (active)

$$$$
>  <compound>
Nc1ccc2c(c1)Cc1cc(NC(=O)C(F)(F)F)ccc1-2

>  <growth>
108% (inactive)

$$$$
>  <compound>
C[C@H]1[C@H](C)CC[C@]2(C(=O)O)CC[C@]3(C)C(=CC[C@@H]4[C@@]5(C)C/C(=C/c6cccnc6)[C@H](O)C(C)(C)[C@@H]5CC[C@]43C)[C@H]12

>  <growth>
13.3% [100 µM] (inactive)

$$$$
>  <compound>
CCOC(=O)c1cc(C#N)n2ncc3ccccc3c12

>  <growth>
95.1% (inactive)

$$$$
>  <compound>
COC(=O)c1cc2c(=O)[nH]cc3c2c(n1)CCC3

>  <growth>
99.3% (inactive)

$$$$
>  <compound>
O=C(NCc1ccccc1)C(Cl)Cl

>  <growth>
108% (inactive)

$$$$
>  <compound>
Cc1cc(N2CCCCCC2)nc(N2CCN(CC(=O)Nc3ccc4c(ccn4Cc4ccccc4)c3)CC2)n1

>  <growth>
12.1% (inactive)

$$$$
>  <compound>
CO[C@H]1CC[C@@]2(C)C(=CC[C@H]3[C@@H]4C[C@H](O)C[C@@]4(C)CC[C@@H]32)C1

>  <growth>
20.7% (inactive)

$$$$
>  <compound>
COc1ncnc2c(-c3ccccc3)cn(COCc3ccccc3)c12

>  <growth>
29.5% (inactive)

$$$$
>  <compound>
Cc1ccc2c(c1)/C(=N\N=C/c1cn(C(C)C)c3ccccc13)C(=O)N2

>  <growth>
22.1% (inactive)

$$$$
>  <compound>
O=C(Nc1cccc(C2=NCCN2)c1)c1cccc(C(=O)Nc2cccc(C3=NCCN3)c2)c1

>  <growth>
96.6% (inactive)

$$$$
>  <compound>
CCN(CC)c1cc(N)c(Cc2c(N)cc(N(CC)CC)cc2Cl)c(Cl)c1

>  <growth>
19.2% (inactive)

$$$$
>  <compound>
CCOc1ccc(/C=C(\C#N)c2cc3ccccc3[nH]2)cc1

>  <growth>
15.3% (inactive)

$$$$
>  <compound>
COc1ccc(-c2ccc(NNC(=O)c3ccc(F)cc3)nn2)cc1OC

>  <growth>
55% (inactive)

$$$$
>  <compound>
O=[N+]([O-])c1cc([N+](=O)[O-])c(C(F)(F)F)cc1NN=C(c1ccc(O)cc1)c1ccc(O)cc1

>  <growth>
103% (inactive)

$$$$
>  <compound>
C=CCCCCOc1ccccc1-c1cnc(OCCCCC=C)n1C

>  <growth>
30.5% (inactive)

$$$$
>  <compound>
OC(c1ccc(Cl)cc1)(c1ccc(Cl)cc1)C(O)(c1ccc(Cl)cc1)c1ccc(Cl)cc1

>  <growth>
32.4% (inactive)

$$$$
>  <compound>
c1ccc2c(c1)CN(CCCN1CCOCC1)C2

>  <growth>
104% (inactive)

$$$$
>  <compound>
CCCn1ccnc1C(O)c1ccc(OCc2ccccc2)c(OC)c1 (configuration not stated)

>  <growth>
107% (inactive)

$$$$
>  <compound>
O=C(N=c1n(-c2ccccc2)nc2n1CCN2C1=NCCN1C(=O)c1ccc(Cl)cc1)c1ccc(Cl)cc1

>  <growth>
47.1% (inactive)

$$$$
>  <compound>
O=C(NCCCCCCCNC(=O)OCc1ccc2c(Cl)cc(Cl)c(O)c2n1)OCc1ccc2c(Cl)cc(Cl)c(O)c2n1

>  <growth>
2.04% (active)

$$$$
